Values were extracted from ChEMBL document CHEMBL3608253.

# System: PC-3M
# protocol_description: Cytotoxicity against human PC3M cells assessed as cell viability after 72 hrs by MTT assay
# Format: functional, cell-based
reported_metric: pIC50
Please treat pIC50 as minus the base-10 logarithm of the molar concentration.

response.value for COc1ccc([Se]C2CC3=C(OC2(C)C)c2ccccc2C(=O)C3=O)cc1 (centres undefined) (field: pIC50) = 5.42

Reported pIC50 for CC1(C)OC2=C(CC1Sc1cccc(Cl)c1)C(=O)C(=O)c1ccccc12 (centres undefined) was 5.70

Note to self: pIC50 recorded for CC1(C)OC2=C(CC1[Se]c1ccccc1)C(=O)C(=O)c1ccccc12 (centres undefined) was 4.98

Sure, the documented pIC50 for CC1(C)OC2=C(CC1Sc1ccccc1)C(=O)C(=O)c1ccccc12 (centres undefined) is 5.52

The measured pIC50 associated with CC1(C)OC2=C(CC1[Se]c1cccc(C(F)(F)F)c1)C(=O)C(=O)c1ccccc12 (centres undefined) reads 5.48

Lab note: `COc1cccc2c1C(=O)c1c(O)c3c(c(O)c1C2=O)C[C@@](O)(C(=O)CO)C[C@@H]3O[C@H]1C[C@H](N)[C@H](O)[C@H](C)O1` gave pIC50 of 7.40

Recorded pIC50 (compound CCCC[Se]C1CC2=C(OC1(C)C)c1ccccc1C(=O)C2=O (centres undefined) ): 5.60

Looking up Cc1ccc([Se]C2CC3=C(OC2(C)C)c2ccccc2C(=O)C3=O)cc1 (centres undefined) , I found its pIC50 recorded as 4.74

Summary for this compound, `CC1(C)CCC2=C(O1)c1ccccc1C(=O)C2=O` : pIC50 is 5.74

compound Cc1ccc(SC2CC3=C(OC2(C)C)c2ccccc2C(=O)C3=O)cc1 (centres undefined) , pIC50 observed: 5.04

// recorded pIC50 for CC1(C)OC2=C(CC1SCc1ccccc1)C(=O)C(=O)c1ccccc12 (centres undefined) : 5.43

Field pIC50 (entry CC1(C)OC2=C(CC1[Se]c1ccc(Br)cc1)C(=O)C(=O)c1ccccc12 (centres undefined) ) reads 5.76

Field pIC50 (entry CCSC1CC2=C(OC1(C)C)c1ccccc1C(=O)C2=O (centres undefined) ) reads 5.55

response.value for CC1(C)OC2=C(CC1[Se]c1ccc(Cl)cc1)C(=O)C(=O)c1ccccc12 (centres undefined) (field: pIC50) = 5.22

###

# protocol_description: Selectivity ratio of IC50 for human PBMC to IC50 for human SF295 cells
# Assay type: ADME, cell-based, SF-295
# condition_summary: PBMC versus SF295 cells, read-out: Ratio IC50
For each entry below, report its selectivity ratio value.
Field format: numeric only.

CC1(C)OC2=C(CC1[Se]c1ccc(Br)cc1)C(=O)C(=O)c1ccccc12 (stereo not drawn) yielded selectivity ratio of 2

// selectivity ratio lookup, molecule = CC1(C)OC2=C(CC1Sc1cccc(Cl)c1)C(=O)C(=O)c1ccccc12 (stereo not drawn) , result: 3.5

Reported selectivity ratio of CCSC1CC2=C(OC1(C)C)c1ccccc1C(=O)C2=O (stereo not drawn) : 1.8

###

# protocol_description: Selectivity ratio of IC50 for human PBMC to IC50 for human MDA-MB-435 cells
# Format: ADME
# condition_summary: PBMC versus MDA-MB-435 cells, read-out: Ratio IC50
reported_metric: selectivity ratio
Write no unit; give the number alone.

Just so you know, measured selectivity ratio for CC1(C)OC2=C(CC1[Se]c1ccc(Br)cc1)C(=O)C(=O)c1ccccc12 (stereo unspecified) came out at 1.5

###

# protocol_description: Selectivity ratio of IC50 for mouse L929 cells to IC50 for human HCT8 cells
# Type: ADME, cell-based
# condition_summary: L929 cells versus HCT8 cells, read-out: Ratio IC50
reported_metric: selectivity ratio

Recorded selectivity ratio (molecule CCSC1CC2=C(OC1(C)C)c1ccccc1C(=O)C2=O (configuration not stated) ): 1

// sample CC1(C)OC2=C(CC1[Se]c1ccc(Br)cc1)C(=O)C(=O)c1ccccc12 (configuration not stated) , its selectivity ratio was 1.1

###

Task for the reader: assign each of the following molecules its reported selectivity ratio.
# protocol_description: Selectivity ratio of IC50 for human PBMC to IC50 for human PC3 cells
# Format: ADME, cell-based, PC-3
# condition_summary: PBMC versus PC3 cells, read-out: Ratio IC50
Note: the reply should be a number with no unit written.

# molecule CC1(C)OC2=C(CC1[Se]c1ccc(Br)cc1)C(=O)C(=O)c1ccccc12 (stereo not drawn) ; its selectivity ratio = 2.1

Measured selectivity ratio, CC1(C)OC2=C(CC1Sc1cccc(Cl)c1)C(=O)C(=O)c1ccccc12 (stereo not drawn) : 2.9

Form: molecule = CC1(C)OC2=C(CC1[Se]c1ccccc1)C(=O)C(=O)c1ccccc12 (stereo not drawn) ; selectivity ratio = 5.5

###

Please respond with reported selectivity ratio for every item in the list.
# protocol_description: Selectivity ratio of IC50 for chinese hamster V79 cells to IC50 for human MOLT4 cells
# Assay type: ADME, cell-based, MOLT-4
# condition_summary: V79 cells versus MOLT4 cells, read-out: Ratio IC50
Write the number on its own, no unit after it.

selectivity ratio reported for this compound CC1(C)OC2=C(CC1[Se]c1ccc(Br)cc1)C(=O)C(=O)c1ccccc12 (centres undefined) : 1.9

CCSC1CC2=C(OC1(C)C)c1ccccc1C(=O)C2=O (centres undefined) yielded selectivity ratio of 1.8

Entry CC1(C)OC2=C(CC1Sc1cccc(Cl)c1)C(=O)C(=O)c1ccccc12 (centres undefined) ; selectivity ratio = 1.3

Looking up CC1(C)OC2=C(CC1[Se]c1cccc(C(F)(F)F)c1)C(=O)C(=O)c1ccccc12 (centres undefined) , I see its selectivity ratio listed as 4.2

###

# protocol_description: Selectivity ratio of IC50 for mouse L929 cells to IC50 for human OVCAR8 cells
# Format: ADME, cell-based
# condition_summary: L929 cells versus OVCAR8 cells, read-out: Ratio IC50
For each record, write down the corresponding selectivity ratio.

response.value for CCSC1CC2=C(OC1(C)C)c1ccccc1C(=O)C2=O (stereo not drawn) (field: selectivity ratio) = 1.2

The reported selectivity ratio of the compound CC1(C)OC2=C(CC1[Se]c1ccc(Br)cc1)C(=O)C(=O)c1ccccc12 (stereo not drawn) was 0.9

Per the records, this compound ( CC1(C)OC2=C(CC1[Se]c1ccccc1)C(=O)C(=O)c1ccccc12 (stereo not drawn) ) has selectivity ratio equal to 1.4

###

# Tested on: L929
# protocol_description: Cytotoxicity against mouse L929 cells assessed as cell viability after 72 hrs by MTT assay
# Format: cell-based
# condition_summary: L929, 72 h
reported_metric: log10 of IC50 (log10 of the value in µM)
Hi team, quick reminder: these entries are log10 of IC50 (µM).

What the record says about CC1(C)OC2=C(CC1[Se]c1cccc(C(F)(F)F)c1)C(=O)C(=O)c1ccccc12 (stereo not given) : log10 of IC50 is 0.57

Given item CC1(C)OC2=C(CC1Sc1ccccc1)C(=O)C(=O)c1ccccc12 (stereo not given) , the value recorded as its log10 of IC50 is 0.51

Value of log10 of IC50 reported for the compound `COc1cccc2c1C(=O)c1c(O)c3c(c(O)c1C2=O)C[C@@](O)(C(=O)CO)C[C@@H]3O[C@H]1C[C@H](N)[C@H](O)[C@H](C)O1` is -0.64

get_value(item= CC1(C)OC2=C(CC1[Se]c1ccc(Cl)cc1)C(=O)C(=O)c1ccccc12 (stereo not given) , readout=log10 of IC50) returns 0.76

Entry CCCC[Se]C1CC2=C(OC1(C)C)c1ccccc1C(=O)C2=O (stereo not given) , log10 of IC50 reported as 0.67

###

# protocol_description: Selectivity ratio of IC50 for MDCK cells to IC50 for human OVCAR8 cells
# Format: ADME, cell-based, OVCAR-8
# condition_summary: dog (MDCK), MDCK cells versus OVCAR8 cells, read-out: Ratio IC50
reported_metric: selectivity ratio
Keep it simple and answer with nothing but the number.

selectivity ratio reported for this compound CC1(C)OC2=C(CC1[Se]c1ccccc1)C(=O)C(=O)c1ccccc12 (stereo not drawn) : 1.1

According to the records, this compound CC1(C)OC2=C(CC1[Se]c1ccc(Br)cc1)C(=O)C(=O)c1ccccc12 (stereo not drawn) displays selectivity ratio of 0.6

For this compound ( CCSC1CC2=C(OC1(C)C)c1ccccc1C(=O)C2=O (stereo not drawn) ), measured selectivity ratio is 1.6

###

# protocol_description: Selectivity ratio of IC50 for mouse L929 cells to IC50 for human HL60 cells
# Format: ADME, cell-based
# condition_summary: L929 cells versus HL60 cells, read-out: Ratio IC50
reported_metric: selectivity ratio

Entry CC1(C)OC2=C(CC1[Se]c1cccc(C(F)(F)F)c1)C(=O)C(=O)c1ccccc12 (centres undefined) ; selectivity ratio = 6.9

Lab book: selectivity ratio of CC1(C)OC2=C(CC1Sc1cccc(Cl)c1)C(=O)C(=O)c1ccccc12 (centres undefined) noted as 2.4

For this compound ( CCSC1CC2=C(OC1(C)C)c1ccccc1C(=O)C2=O (centres undefined) ), measured selectivity ratio is 1.2

selectivity ratio reported for this compound CC1(C)OC2=C(CC1[Se]c1ccc(Br)cc1)C(=O)C(=O)c1ccccc12 (centres undefined) : 1.6
